// provenance: patent US12577311

# ASSAYED_TARGET: CAIX (UniProt Q16790 38-414)
MEASUREMENT_KIND: pKd
Lab note: report pKd as minus log10 of the concentration in molar units, number only.

GET /values?readout=pKd&item= G37 (antibody, V domains shown) VH: QVQLVQSGGGVVQPGGSLRLSCAASGFPFSSYAMSWVRQAPGKGLEWVSAISANGGTTYYADSVKGRFTISRDNSKNTLYLQMNSLRAEDTAVYYCANNGNYRGAFDIWGQGTMVTVSS VL: QSVLTQPPSVSGAPGQRITISCTGSRSNIGADYDVHWYQQLPGTAPKLLIYANNNRPSGVPDRFSGSKSGTSASLAITGLQAEDETDYFCQSYDSSLSAWVFGGGTKVTVLG
8.72
